- Tested on: MM cell lines (MM.1S, 8226, KMS-11)
- Assay type: cell-based

Molecule	Study Target	cytotoxicity (cell death)
CC(C)OC(=O)C(C)(C)Oc1ccc(C(=O)c2ccc(Cl)cc2)cc1 [fenofibrate]	MM cell lines (MM.1S, 8226, KMS-11)	significant toxicity
Cc1c(C)c2c(c(C)c1O)CCC(C)(COc1ccc(CC3SC(=O)NC3=O)cc1)O2 (stereo not shown)	MM cell lines (MM.1S, 8226, KMS-11)	significant toxicity

* * *

- Tested on: multiple myeloma cell lines (MM.1S, 8226, KMS-11, U266)
- Assay type: cell-based

Molecule	cytotoxicity (cell death)
CC(C)OC(=O)C(C)(C)Oc1ccc(C(=O)c2ccc(Cl)cc2)cc1 [fenofibrate]	significant toxicity
Cc1c(C)c2c(c(C)c1O)CCC(C)(COc1ccc(CC3SC(=O)NC3=O)cc1)O2 (stereo not shown)	significant toxicity
